- SYSTEM_NAME: T1, hFLT3-His fusion protein (human, UniProt P36888 27-541, limits assumed)
- T1 construct: Soluble recombinant antigen used for immunisation, ELISA, SPR and BLI binning; also called recombinant hFLT3 protein; not shown: His tag
- T1 sequence (looked up): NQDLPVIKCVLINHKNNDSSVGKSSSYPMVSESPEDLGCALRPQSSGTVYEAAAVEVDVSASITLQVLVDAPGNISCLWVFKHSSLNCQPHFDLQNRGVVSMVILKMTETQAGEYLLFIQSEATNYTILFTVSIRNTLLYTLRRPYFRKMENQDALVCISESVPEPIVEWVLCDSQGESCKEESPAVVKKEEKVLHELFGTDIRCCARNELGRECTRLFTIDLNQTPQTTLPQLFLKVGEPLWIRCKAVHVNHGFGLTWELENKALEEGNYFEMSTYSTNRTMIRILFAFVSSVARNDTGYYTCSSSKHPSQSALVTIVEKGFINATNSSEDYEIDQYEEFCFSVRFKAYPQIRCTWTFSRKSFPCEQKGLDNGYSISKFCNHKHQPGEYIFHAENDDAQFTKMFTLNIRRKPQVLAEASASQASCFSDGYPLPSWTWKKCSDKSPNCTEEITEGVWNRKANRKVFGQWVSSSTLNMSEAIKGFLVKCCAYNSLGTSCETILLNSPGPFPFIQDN
- ASSAY_REMARKS: SPR, purified murine subclone mAb, hFLT3-His
Record yes (1) whenever kon is at 100000 M⁻¹ s⁻¹ or higher; record no (0) when lower.

{"columns": ["BINDER", "CATEGORY_LABEL"],
 "data": [
  ["15A11.C8 (antibody, V domains shown, Purified murine mAb from a hybridoma subclone) VH: EVQLQESGGGLVKTGGSRKLSCAASGFTFSDYGMHWVRHTPEKGLEWVVYISSGGNTIFYTDTVKGRFTISRDNAKNTLFLQMTSLRSEDTAVYFCVRQGYYYAMDYWGQGASVTVSS VL: DIQMTQTTSSLSASLGDRVTIRCRASQDITNYLNWYQQKPDGAVKLLISYTSILQSGVPSRFSGSGSGTDYSLTISNLEQGDVATYFCQQGSSLPWTFGGGTKLEIK", "no (0)"],
  ["4A4.A3 (antibody, V domains shown, Purified murine mAb from a hybridoma subclone) VH: QVTLKESGPGILQPSQTLSLTCSFSGFSLTTYGMGVGWIRQPSGKGLEWLANIWFNDNKYYNSTLKSRLTISKDTSNNQVFLKISSVDTTDTATYYCAQITTVVGTFDYWGQGSPLTVSP VL: RIVMTQSPTTMAASPGEKITITCSASSSISSIYLHWYQQKPGFSPKLLIFRTSDLASGVPPRFGGSGSGTSYSLTIGTMEAEDVATYYCQQGSSFPRTFGGGTKLEIK", "yes (1)"],
  ["14A5.E8 (antibody, V domains shown, Purified murine mAb from a hybridoma subclone) VH: EVQLQESGAELVQPGASVRLSCKASGYTFTSYWINWVKQRPGQGLEWIGNIYPGSSIINYNENFKNRATLTVDTSSSTAYMQLSSLTSDDSAVYYCARRVVYLYFDYWGQGTTLTVSS VL: QIVLTQSPAIMSASPGEKVTMTCSASSSVSYMHWYQQKSGTSPKRWIYDTSKLASGVPARFSGSGSGTSYSLTISSMEAEDAATYYCQQWTSKSPTFGGGTKLEIK", "yes (1)"]
]}

Turning to the following binder.
Check this binder for kon at or above 100000 M⁻¹ s⁻¹: 11F4.B9 (antibody, V domains shown, Purified murine mAb from a hybridoma subclone) VH: EVQLQESGPELVKPGASVKISCKASGYSFTGYYIHWVKQGPEKSLEWIGEIIPSTGSTIYNQKFKAKATLTVDKSSSTAYLQLKSLTSEDSAVYYCERWGDYYGRDYWGQGTSVTVSS VL: DIVLTQSPASLAVSLGQRATISCRASESVDIYGNSFMHWYQQKPGQPPKLLIYRASNLESGIPARFSGSGSRTDFTLTINPVEADDVATYYCQQSNEDPRTFGGGTKLEIK
yes (1)

This collection of values is drawn from patent US20240117054A1.
